B1: TPR t1 (parent)
chain: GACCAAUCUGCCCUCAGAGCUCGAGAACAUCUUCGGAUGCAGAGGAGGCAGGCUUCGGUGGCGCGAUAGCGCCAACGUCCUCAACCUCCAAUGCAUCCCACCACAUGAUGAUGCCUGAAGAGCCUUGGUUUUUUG

Variants of: B1
Test: polymerase ribozyme fitness, log enrichment relative to wild type (log ratio); higher = more active; in vitro selection for triplet polymerase activity
// bucketize polymerase ribozyme fitness (log ratio): low class (below -3), middle class (-3 to below -2), high class (-2 or more)

Worked examples follow.
G42U C73A G127A ... middle class
A2C U55C C82G A91C A105U C123G ... low class
C8A C64A U112C U125A ... low class

Hello team, could you let me know which band the following variant falls into: G71U G122U
high class

Then this variant: U116G C123A
low class

Then this variant: U32C C104U U112G
high class

Then this variant: C49G G71C A84U G110C
low class

Then this variant: C8U U33A
low class

Then this variant: C64U C88U
high class

Data origin: the RNAGym collection of RNA variant scans (doi:10.1073/pnas.2313332121)
